Cited source: the NIST ThermoML archive (doi:10.1016/j.jct.2012.01.019)

# Test Description: activity coefficient (dimensionless); of the first substance listed, at infinite dilution; xn = mol fraction of the nth substance listed
# Condition Notes: 348.15 K; 101 kPa; Liquid; Chromatography; x1 = 0
Measured Metric: activity coefficient

> print(dat)
                                   compound  numeric.result
1  C1CCOC1 [tetrahydrofuran] + COCC[N+]1(C)CCCCC1.O=S(=O)([N-]S(=O)(=O)C(F)(F)F)C(F)(F)F           0.799
2  CCOC(C)(C)C [2-ethoxy-2-methylpropane] + COCC[N+]1(C)CCCCC1.O=S(=O)([N-]S(=O)(=O)C(F)(F)F)C(F)(F)F            5.53
3  Cc1ccc(C)cc1 [1,4-dimethylbenzene] + COCC[N+]1(C)CCCCC1.O=S(=O)([N-]S(=O)(=O)C(F)(F)F)C(F)(F)F            1.14
4  CCCC(C)=O [pentan-2-one] + COCC[N+]1(C)CCCCC1.O=S(=O)([N-]S(=O)(=O)C(F)(F)F)C(F)(F)F           0.825
5  CCCCCCCCC [nonane] + COCC[N+]1(C)CCCCC1.O=S(=O)([N-]S(=O)(=O)C(F)(F)F)C(F)(F)F            38.2
6  CCC(=O)CC [pentan-3-one] + COCC[N+]1(C)CCCCC1.O=S(=O)([N-]S(=O)(=O)C(F)(F)F)C(F)(F)F           0.838
7  O [water] + COCC[N+]1(C)CCCCC1.O=S(=O)([N-]S(=O)(=O)C(F)(F)F)C(F)(F)F            2.33
